experimental system: mouse SSAO (Mus musculus)
Sequence (O70423 whole entry): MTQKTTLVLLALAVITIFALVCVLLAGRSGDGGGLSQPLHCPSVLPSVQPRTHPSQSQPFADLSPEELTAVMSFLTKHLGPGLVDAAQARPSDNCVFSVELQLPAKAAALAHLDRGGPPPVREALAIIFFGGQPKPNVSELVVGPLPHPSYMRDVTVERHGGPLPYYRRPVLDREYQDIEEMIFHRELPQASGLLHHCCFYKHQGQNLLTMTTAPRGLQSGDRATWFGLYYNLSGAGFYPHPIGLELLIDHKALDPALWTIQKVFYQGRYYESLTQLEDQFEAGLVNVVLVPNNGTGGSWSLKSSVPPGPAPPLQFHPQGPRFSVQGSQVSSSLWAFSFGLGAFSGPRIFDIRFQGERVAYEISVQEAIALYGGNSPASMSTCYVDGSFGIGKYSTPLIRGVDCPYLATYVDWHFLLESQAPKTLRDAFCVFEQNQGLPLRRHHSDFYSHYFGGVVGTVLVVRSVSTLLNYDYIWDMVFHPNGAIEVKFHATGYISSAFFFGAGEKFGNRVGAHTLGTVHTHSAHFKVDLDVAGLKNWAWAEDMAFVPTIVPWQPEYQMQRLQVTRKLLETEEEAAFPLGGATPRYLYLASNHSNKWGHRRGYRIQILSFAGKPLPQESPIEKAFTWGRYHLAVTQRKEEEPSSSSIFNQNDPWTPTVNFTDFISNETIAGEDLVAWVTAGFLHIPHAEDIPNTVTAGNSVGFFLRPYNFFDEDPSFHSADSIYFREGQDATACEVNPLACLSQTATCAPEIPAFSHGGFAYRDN
assay: SSAO activity, hydrogen peroxide production relative to benzylamine (mouse)
Format: biochemical
experimental setup: compound at 100 μM
SSAO activity (% relative to benzylamine) Mouse overview
parameter: SSAO activity (% relative to benzylamine) Mouse (%)

[
  {
    "molecule": "NCCc1ccccc1",
    "reported": 6.80
  },
  {
    "molecule": "CC(C)(C)c1ccc(CN)cc1",
    "reported": 1.00
  },
  {
    "molecule": "COc1cccc2[nH]cc(CN)c12",
    "reported": 5.54
  },
  {
    "molecule": "NCCOc1ccccc1",
    "reported": 14.60
  },
  {
    "molecule": "NCc1cccc(CN)c1",
    "reported": 0.00
  },
  {
    "molecule": "NCCCc1ccccc1",
    "reported": 44.80
  },
  {
    "molecule": "NCc1ccc(CN)cc1",
    "reported": 0.00
  },
  {
    "molecule": "NCc1cccc([N+](=O)[O-])c1O",
    "reported": 5.47
  },
  {
    "molecule": "NCc1c(O)ccc2ccccc12",
    "reported": 0.00
  },
  {
    "molecule": "NCc1ccccc1 [Entry 1, Benzylamine, reference compound]",
    "reported": 100
  },
  {
    "molecule": "COc1cc(CN)cc(OC)c1",
    "reported": 0.75
  },
  {
    "molecule": "Cc1ccc(CN)cc1",
    "reported": 0.00
  },
  {
    "molecule": "NCCCCc1ccccc1",
    "reported": 61.18
  },
  {
    "molecule": "CC(N)c1cccc2ccccc12 (stereo not drawn)",
    "reported": 0.00
  },
  {
    "molecule": "NCc1ccc(OCc2ccccc2)cc1",
    "reported": 0.0
  }
]
